- subject_of_test: isolated recombinant JAK2 kinase domain (Homo sapiens)
- Construct: isolated recombinant JAK1 and JAK2 kinase domain
- Sequence (O60674 849-1124 limits assumed): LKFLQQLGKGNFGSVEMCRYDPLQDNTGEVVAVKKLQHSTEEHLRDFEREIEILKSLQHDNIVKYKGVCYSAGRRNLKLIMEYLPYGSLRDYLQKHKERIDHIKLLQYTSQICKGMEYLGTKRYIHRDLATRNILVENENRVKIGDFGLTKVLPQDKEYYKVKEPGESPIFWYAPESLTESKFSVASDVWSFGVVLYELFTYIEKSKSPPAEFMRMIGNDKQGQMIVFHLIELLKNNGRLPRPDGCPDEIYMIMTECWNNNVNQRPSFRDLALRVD
- measurement_notes: JAK enzyme assay, JAK2 kinase domain (Caliper LabChip)
- experimental_parameters: 0.2 nM JAK2, ATP 25 μM, Morrison tight binding model
pKi: −log10 of the molar value.
result_type: pKi

Examples with answers:
>>> recorded_number("N#CCC1(n2cc(C(F)(F)F)cn2)CN(c2cccn3nc(Nc4cn[nH]c4)nc23)C1")
9.40
>>> recorded_number("CSc1cc(C2(CC#N)CN(c3cccn4nc(Nc5cnn(CC(=O)N6CCN(C)CC6)c5)nc34)C2)ccc1F")
9.15
>>> recorded_number("Cc1ccccc1-c1cnn(C2(CC#N)CN(c3cccn4nc(Nc5cnn(CC(=O)N6CCC(N(C)C7COC7)CC6)c5)nc34)C2)c1")
8.42
>>> recorded_number("CC(C)c1cnn(C2(CC#N)CN(c3cccn4nc(Nc5cnn(CC(=O)N6CCN(C)CC6)c5)nc34)C2)c1")
7.98
>>> recorded_number("CN1CCN(C(=O)Cn2cc(Nc3nc4c(N5CC(CC#N)(Cc6ccccc6Cl)C5)cccn4n3)cn2)CC1")
9.40

I. CCc1cnn(C2(CC#N)CN(c3cccn4nc(Nc5ccc6c(c5)CCN([C@H]5CCOC5)C6)nc34)C2)c1 (stereo in doubt)
II. CN1CCN(C(=O)Cn2cc(Nc3nc4c(N5CC(CC#N)(c6ccccc6)C5)cccn4n3)cn2)CC1
III. CN1CCN(C(=O)Cn2cc(Nc3nc4c(N5CC(CC#N)(Cc6cccc(Cl)c6)C5)cccn4n3)cn2)CC1
Could you please sort these 3 entries by pKi from high to low? // ordering of labels required in reply
II, I, III

a. CCc1cnn(C2(CC#N)CN(c3cccn4nc(Nc5cnn(CC(=O)N6CCN(C7COC7)CC6)c5)nc34)C2)c1
b. N#CCC1(c2cccc(Cl)c2)CN(c2cccn3nc(Nc4cnn(CC(=O)N5CCN(C6COC6)CC5)c4)nc23)C1
Please choose the item with the lower pKi value from this pair: a and b Respond with the label that goes with your answer.
b
(b: 9.30, a: 9.70)

P. N#CCC1(n2cc(OC(F)F)cn2)CN(c2cccn3nc(Nc4cnn(CC(F)F)c4)nc23)C1
Q. CCc1cnn(C2(CC#N)CN(c3cccn4nc(Nc5ccc(C(=O)N6CCC(N7CCOCC7)CC6)cc5)nc34)C2)c1
R. Cc1nn(C2(CC#N)CN(c3cccn4nc(Nc5cnn(CC(=O)N6CCN(C)CC6)c5)nc34)C2)cc1C1CCCCC1
S. N#CCC1(n2cc(Br)cn2)CN(c2cccn3nc(Nc4cnn(CC(=O)N5CCN(C6CCOCC6)CC5)c4)nc23)C1
Hey, quick one: sort these by pKi, low to high? // ordering of labels required in reply
R, Q, S, P
(R: 8.21, Q: 8.80, S: 9.10, P: 9.70)

I. N#CCC1(c2cccc(Cl)c2)CN(c2cccn3nc(Nc4cnn(CC(=O)N5CCC(NCC6(C#N)CC6)CC5)c4)nc23)C1
II. CCc1cnn(C2(CC#N)CN(c3cccn4nc(Nc5ccc(C(=O)N6CCN(C)CC6)c(F)c5)nc34)C2)c1
Recorded pKi values differ for I and II ; which one is higher? Respond with the label that goes with your answer.
II
(II: 9.05, I: 8.40)

---

- subject_of_test: isolated recombinant JAK1 kinase domain (Homo sapiens)
- Construct: isolated recombinant JAK1 and JAK2 kinase domain
- measurement_notes: JAK enzyme assay, JAK1 kinase domain (Caliper LabChip)
- experimental_parameters: 1.5 nM JAK1, ATP 25 μM, Morrison tight binding model
pKi: −log10 of the molar value.
result_type: pKi

Examples with answers:
>>> recorded_number("COCCN1CCN(C(=O)Cn2cc(Nc3nc4c(N5CC(CC#N)(c6cccc(Cl)c6)C5)cccn4n3)cn2)CC1 [Example 81]")
9.40
>>> recorded_number("N#CCC1(n2cc(CCF)cn2)CN(c2cccn3nc(Nc4cn[nH]c4)nc23)C1 [Example 149]")
9.52
>>> recorded_number("CCc1cnn(C2(CC#N)CN(c3cccn4nc(Nc5cnn(CC(=O)N6CCC(N(C)CC7(C#N)CC7)CC6)c5)nc34)C2)c1 [Example 45]")
9.52

P. CSc1cccc(C2(CC#N)CN(c3cccn4nc(Nc5cnn(CC(=O)N6CCC(N7CCOCC7)CC6)c5)nc34)C2)c1 [Example 90]
Q. CN1CCN(C(=O)Cn2cc(Nc3nc4c(N5CC(CC#N)(N6CCC(C(F)(F)F)CC6)C5)cccn4n3)cn2)CC1 [Example 11]
R. CN1CCN(C(=O)Cn2cc(Nc3nc4c(N5CC(CC#N)(n6cc(I)cn6)C5)cccn4n3)cn2)CC1 [Example 89]
S. Cc1nn(C2(CC#N)CN(c3cccn4nc(Nc5cnn(CC(=O)N6CCN(C)CC6)c5)nc34)C2)cc1C1CCCCC1 [Example 120]
Could you please sort these 4 entries by pKi from high to low? // ordering of labels required in reply
P, S, Q, R
(P: 9.40, S: 9.10, Q: 8.89, R: 8.19)

---

- subject_of_test: isolated recombinant JAK1 kinase domain (Homo sapiens)
- Construct: isolated recombinant JAK1 and JAK2 kinase domain
- measurement_notes: JAK enzyme assay, JAK1 kinase domain (Caliper LabChip)
- experimental_parameters: 1.5 nM JAK1, ATP 25 μM, Morrison tight binding model
pKi: −log10 of the molar value.
result_type: pKi

Examples with answers:
>>> recorded_number("CCc1cnn(C2(CC#N)CN(c3cccn4nc(Nc5ccc(C(=O)N6CC7(CCN(C)CC7)C6)cc5)nc34)C2)c1")
8.96
>>> recorded_number("CN1CCN(C(=O)Cn2cc(Nc3nc4c(N5CC(CC#N)(c6ccc(Cl)cc6)C5)cccn4n3)cn2)CC1")
7.43
>>> recorded_number("Cc1ccccc1-c1cnn(C2(CC#N)CN(c3cccn4nc(Nc5cnn(CC(=O)N6CCC(NCC7(C#N)CC7)CC6)c5)nc34)C2)c1")
8.96

a. CCc1cnn(C2(CC#N)CN(c3cccn4nc(Nc5cnn(CC(F)F)c5)nc34)C2)c1
b. N#CCC1(c2cccc(Cl)c2)CN(c2cccn3nc(Nc4cnn(CC(=O)N5CCC(NCC6(C#N)CC6)CC5)c4)nc23)C1
c. CN1CCN(C(=O)Cn2cc(Nc3nc4c(N5CC(CC#N)(n6cc(Br)cn6)C5)cccn4n3)cn2)CC1
d. CCc1cnn(C2(CC#N)CN(c3cccn4nc(Nc5cnn(CC(=O)N6CCN(C7COC7)CC6)c5)nc34)C2)c1
Hey, quick one: sort these by pKi, low to high? // ordering of labels required in reply
c, b, d, a
(c: 8.02, b: 8.70, d: 9.40, a: 10.00)

---

- subject_of_test: isolated recombinant JAK1 kinase domain (Homo sapiens, UniProt P23458)
- Construct: isolated recombinant JAK1 and JAK2 kinase domain
- Sequence (P23458 875-1153 limits assumed): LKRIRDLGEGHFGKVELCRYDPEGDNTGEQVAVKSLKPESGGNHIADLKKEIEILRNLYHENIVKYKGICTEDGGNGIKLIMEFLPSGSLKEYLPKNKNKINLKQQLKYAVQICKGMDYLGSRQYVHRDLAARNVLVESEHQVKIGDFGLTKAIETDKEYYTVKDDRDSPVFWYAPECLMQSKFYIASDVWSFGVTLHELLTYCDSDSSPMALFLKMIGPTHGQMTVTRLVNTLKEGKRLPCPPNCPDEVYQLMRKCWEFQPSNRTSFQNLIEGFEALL
- measurement_notes: JAK enzyme assay, JAK1 kinase domain (Caliper LabChip)
- experimental_parameters: 1.5 nM JAK1, ATP 25 μM, Morrison tight binding model
result_type: Ki (nM)

>>> recorded_number("CN1CCN(C(=O)Cn2cc(Nc3nc4c(N5CC(CC#N)(n6cc(-c7ccccc7F)cn6)C5)cccn4n3)cn2)CC1")
0.2

1. CC(=O)N1CCN(CC2CCN(C(=O)Cn3cc(Nc4nc5c(N6CC(CC#N)(c7cccc(Cl)c7)C6)cccn5n4)cn3)CC2)CC1
2. N#CCC1(n2cc(SC(F)F)cn2)CN(c2cccn3nc(Nc4cn[nH]c4)nc23)C1
3. CCc1cnn(C2(CC#N)CN(c3cccn4nc(Nc5cnn(CCCO)c5)nc34)C2)c1
Could you please sort these 3 entries by Ki from high to low? // ordering of labels required in reply
3, 1, 2

---

- subject_of_test: isolated recombinant JAK1 kinase domain (Homo sapiens)
- Construct: isolated recombinant JAK1 and JAK2 kinase domain
- measurement_notes: JAK enzyme assay, JAK1 kinase domain (Caliper LabChip)
- experimental_parameters: 1.5 nM JAK1, ATP 25 μM, Morrison tight binding model
result_type: Ki (nM)

>>> recorded_number("CCN1CCN(C(=O)Cn2cc(Nc3nc4c(N5CC(CC#N)(c6cccc(SC)c6)C5)cccn4n3)cn2)CC1 [Example 80]")
0.5

1. CSc1cccc(C2(CC#N)CN(c3cccn4nc(Nc5cnn(CC(=O)N6CCN(C)CC6)c5)nc34)C2)c1 [Example 78]
2. CCc1cnn(C2(CC#N)CN(c3cccn4nc(Nc5cnn[nH]5)nc34)C2)c1 [Example 152]
3. CN1CCN(C(=O)Cn2cc(Nc3nc4c(N5CC(CC#N)(c6ccc(F)c(Cl)c6)C5)cccn4n3)cn2)CC1 [Example 83]
Hey, quick one: sort these by Ki, low to high? // ordering of labels required in reply
3, 1, 2
(3: 0.2 nM, 1: 0.3 nM, 2: 0.7 nM)

I. CN1CCN(C(=O)Cn2cc(Nc3nc4c(N5CC(CC#N)(n6cc(CCF)cn6)C5)cccn4n3)cn2)CC1 [Example 40]
II. N#CCC1(n2cc(C(F)(F)F)cn2)CN(c2cccn3nc(Nc4ccc5c(c4)CCN(C4COC4)C5)nc23)C1 [Example 121]
Please choose the item with the lower Ki value from this pair: I and II Respond with the label that goes with your answer.
I
